The reported numbers originate from ChEMBL document CHEMBL4376822.

Measured pIC50, listed per entry for reference.
- target: Induced myeloid leukemia cell differentiation protein Mcl-1 (Homo sapiens)
- Sequence (Q07820 whole entry, the tested form may be a part): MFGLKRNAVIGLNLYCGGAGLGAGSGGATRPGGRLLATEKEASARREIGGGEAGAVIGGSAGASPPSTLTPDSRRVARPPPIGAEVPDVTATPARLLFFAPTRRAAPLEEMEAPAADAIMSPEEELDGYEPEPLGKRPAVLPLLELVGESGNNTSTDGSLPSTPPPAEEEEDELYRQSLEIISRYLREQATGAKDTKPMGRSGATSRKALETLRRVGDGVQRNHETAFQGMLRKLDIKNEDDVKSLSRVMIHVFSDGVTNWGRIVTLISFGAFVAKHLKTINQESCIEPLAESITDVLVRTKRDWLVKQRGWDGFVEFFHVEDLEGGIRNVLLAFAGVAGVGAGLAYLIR
- assay remarks: Displacement of fluorescein labelled Puma-BH3 peptide from His-tagged-TEV fused human Mcl-1 incubated for 2 hrs by fluorescence polarization assay
pIC50: −log10 of the molar value.
observed property: pIC50

[[record]]
structure_as_smiles = "CCc1sc2ncnc(N[C@@H](CO)C(=O)O)c2c1-c1ccccc1"
observed_property = "pIC50"
reported_value = 3.28

[[record]]
structure_as_smiles = "Cc1n[nH]c(C)c1-c1cccc2c(CCCOc3cccc4ccccc34)c(C(=O)O)[nH]c12"
observed_property = "pIC50"
reported_value = 7.00

